- MEASUREMENT_CONTEXT: 288.15 K; 101.33 kPa; Liquid
PROPERTY_LABEL: mass density (kg/m3)
Numbers only; they are read as kg/m3.

COMPOUND	MEASUREMENT_UNIT	mass density
CCn1cc[n+](C)c1.CS(=O)(=O)[O-] [1-ethyl-3-methylimidazolium methanesulfonate]	kg/m3	1248.49
CCCCn1cc[n+](CCCC)c1.O=S(=O)([N-]S(=O)(=O)C(F)(F)F)C(F)(F)F	kg/m3	1349.01
CCCCCCCCOS(=O)(=O)[O-].CCn1cc[n+](C)c1 [1-ethyl-3-methylimidazolium octyl sulfate]	kg/m3	1100.82

response.value for CCn1cc[n+](C)c1.CO[PH](=O)[O-] [1-ethyl-3-methylimidazolium methyl phosphonate] (field: mass density) = 1198.42

----------
Examples of compounds with documented mass density follow.
- MEASUREMENT_CONTEXT: 353.15 K; 101.33 kPa; Liquid
Report the value in kg/m3 with no unit label.

COMPOUND	mass density / kg/m3
CCn1cc[n+](C)c1.CS(=O)(=O)[O-] [1-ethyl-3-methylimidazolium methanesulfonate]	1204.82
CCCCCCCCOS(=O)(=O)[O-].CCn1cc[n+](C)c1 [1-ethyl-3-methylimidazolium octyl sulfate]	1058.59
CCn1cc[n+](C)c1.CO[PH](=O)[O-] [1-ethyl-3-methylimidazolium methyl phosphonate]	1156.06

The recorded mass density for entry CCCCn1cc[n+](CCCC)c1.O=S(=O)([N-]S(=O)(=O)C(F)(F)F)C(F)(F)F equals 1291.2

----------
- MEASUREMENT_CONTEXT: 358.15 K; 101.33 kPa; Liquid
Numbers after ± are expanded uncertainties.
# mass density per record follows

Consider the following illustrative entries.
COMPOUND	RESULT
CCn1cc[n+](C)c1.CO[PH](=O)[O-] [1-ethyl-3-methylimidazolium methyl phosphonate]	1152.9 ± 1.9 kg/m3
CCn1cc[n+](C)c1.CS(=O)(=O)[O-] [1-ethyl-3-methylimidazolium methanesulfonate]	1201.56 ± 1.4 kg/m3
CCCCCCCCOS(=O)(=O)[O-].CCn1cc[n+](C)c1 [1-ethyl-3-methylimidazolium octyl sulfate]	1055.42 ± 0.96 kg/m3

Now consider a different compound.
The compound CCCCn1cc[n+](CCCC)c1.O=S(=O)([N-]S(=O)(=O)C(F)(F)F)C(F)(F)F showed mass density equal to 1286.84 ± 1.7 kg/m3

----------
- MEASUREMENT_CONTEXT: 343.15 K; 101.33 kPa; Liquid
Recorded mass density, one value per entry.
Report as a plain number; the unit kg/m3 is understood.

Some compounds with recorded mass density:
COMPOUND	mass density / kg/m3
CCn1cc[n+](C)c1.CO[PH](=O)[O-] [1-ethyl-3-methylimidazolium methyl phosphonate]	1162.45
CCn1cc[n+](C)c1.CS(=O)(=O)[O-] [1-ethyl-3-methylimidazolium methanesulfonate]	1211.38
CCCCCCCCOS(=O)(=O)[O-].CCn1cc[n+](C)c1 [1-ethyl-3-methylimidazolium octyl sulfate]	1064.94

Record CCCCn1cc[n+](CCCC)c1.O=S(=O)([N-]S(=O)(=O)C(F)(F)F)C(F)(F)F . Reported mass density: 1299.99

----------
- MEASUREMENT_CONTEXT: 363.15 K; 101.33 kPa; Liquid
PROPERTY_LABEL: mass density (kg/m3)
Give your result in kg/m3 as a bare value.

MOLECULE	RESULT
CCn1cc[n+](C)c1.CO[PH](=O)[O-] [1-ethyl-3-methylimidazolium methyl phosphonate]	1149.73
CCn1cc[n+](C)c1.CS(=O)(=O)[O-] [1-ethyl-3-methylimidazolium methanesulfonate]	1198.31
CCCCn1cc[n+](CCCC)c1.O=S(=O)([N-]S(=O)(=O)C(F)(F)F)C(F)(F)F	1282.5

Then this molecule:
Lookup result for CCCCCCCCOS(=O)(=O)[O-].CCn1cc[n+](C)c1 [1-ethyl-3-methylimidazolium octyl sulfate] ; measured mass density: 1052.26
